biological target: native mouse MET on living cells (mouse, UniProt P16056 25-1379); assay: cell-based or functional assay
Assignment: determine reported scatter score 0-4, MLP29, 9.000 nM for the given binders.
Give bare numbers, in score.

binder: 72F8 chimeric llama-human IgG1 mAb (antibody, V domains shown, llama VH on human IgG1 CH1-CH2-CH3, llama VL on human lambda CL) VH: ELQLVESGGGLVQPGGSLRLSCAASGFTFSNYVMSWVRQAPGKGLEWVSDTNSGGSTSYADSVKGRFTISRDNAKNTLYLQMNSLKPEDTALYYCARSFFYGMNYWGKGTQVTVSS VL: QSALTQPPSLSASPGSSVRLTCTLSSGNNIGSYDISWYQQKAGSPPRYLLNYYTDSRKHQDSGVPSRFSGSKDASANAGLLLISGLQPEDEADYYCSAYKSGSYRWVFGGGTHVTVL
scatter score 0-4, MLP29, 9.000 nM / score: 3

API: the following record is the query input.
Summary for this binder, 76G7 chimeric llama-human IgG1 mAb (antibody, V domains shown, llama VH on human IgG1 CH1-CH2-CH3, llama VL on human lambda CL) VH: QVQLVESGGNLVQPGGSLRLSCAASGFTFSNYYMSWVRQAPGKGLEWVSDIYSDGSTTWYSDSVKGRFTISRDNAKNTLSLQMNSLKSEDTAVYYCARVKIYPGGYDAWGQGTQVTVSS VL: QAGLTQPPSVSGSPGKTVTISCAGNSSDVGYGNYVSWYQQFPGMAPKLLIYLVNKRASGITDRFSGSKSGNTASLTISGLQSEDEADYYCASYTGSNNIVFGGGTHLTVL : scatter score 0-4, MLP29, 9.000 nM is 3
